biological target: Mgal-WhiA (Mycoplasma gallisepticum S6, UniProt A0A0F6CKV5 1-295); assay: EMSA; 1 mM ATP; total binding; unit not printed (nM implied); EMSA: 20 mM carbonate pH 9.8, 6% glycerol, 37 C 10 min, gel at 10 C; MST: PBS (10 mM Na phosphate pH 7.4, 140 mM NaCl, 3 mM KCl), 0.05% Tween-20, 50 mM imidazole, 50 nM duplex, 20 C; details: protein: recombinant; label: 5' FAM (EMSA) or HEX (MST) on strand 1; blunt

{"binder": "rpsJ WT (dsDNA) DNA 1: AAAGATTGCTGATACACCAAAAACCGTTGTCAAGTATCAG DNA 2: CTGATACTTGACAACGGTTTTTGGTGTATCAGCAATCTTT", "Kd, nM": 680}
